biological target: T1, Human PD-1 expressed on CHO-K1 cells (CHO-K1/hPD-1) (human, UniProt Q15116 25-288); assay: FACS, CHO-K1/hPD-1 cells
T1 construct: whole, on cells; also called CHO-K1 cells overexpressing human PD-1
T1 sequence (Q15116 25-288): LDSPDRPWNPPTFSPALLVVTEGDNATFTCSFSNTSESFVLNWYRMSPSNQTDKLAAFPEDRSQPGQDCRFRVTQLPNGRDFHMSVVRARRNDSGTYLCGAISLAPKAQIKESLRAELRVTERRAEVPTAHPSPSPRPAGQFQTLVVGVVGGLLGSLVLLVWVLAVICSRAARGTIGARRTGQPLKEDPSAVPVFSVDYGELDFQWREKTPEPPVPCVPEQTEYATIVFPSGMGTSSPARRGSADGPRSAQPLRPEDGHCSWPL
pEC50: −log10 of the molar value.
Each entry below carries its reported pEC50.
reported_property: pEC50

1. PR005585 (antibody, human IgG1, V domains shown, no light chain; also called anti-PD1 PR002481Com_35 HCAb hIgG1) VH: EVQLVETGGGLIQPGGSLRLSCAASGFTVSSFYMSWVRQAPGKGREWVSIIDKAGSTYYADSVKGRFTISRDNSKNRLYLQMNSLRAEDTAMYYCARATEVREKQGYNYPFNYWGQGTLVTVSS : 8.11
2. PR005583 (antibody, human IgG1, V domains shown, no light chain; also called anti-PD1 PR002481Com_29 HCAb hIgG1) VH: EVQLVETGGGLIQPGGSLRLSCAASGFNVASFYMSWVRQAPGKGREWVSIIDKAGSTYYADSVKGRFTISRDNSKNRLYLQMNSLRAEDTAMYYCARATEVREKQGYNYPFNYWGQGTLVTVSS : 8.32
3. PR005578 (antibody, human IgG1, V domains shown, no light chain; also called anti-PD1 PR002481Com_27 HCAb hIgG1) VH: EVQLVETGGGLIQPGGSLRLSCAASGFNVASYYMSWVRQAPGKGREWVSIIDKAGSGYYADSVKGRFTISRDNSKNRLYLQMNSLRAEDTAMYYCARATAVREKQGYNYPFNYWGQGTLVTVSS : 8.37
4. PR005577 (antibody, human IgG1, V domains shown, no light chain; also called anti-PD1 PR002481Com_26 HCAb hIgG1) VH: EVQLVETGGGLIQPGGSLRLSCAASGFNVASYYMSWVRQAPGKGREWVSIIDKAGSGYYADSVKGRFTISRDNSKNRLYLQMNSLRAEDTAMYYCARATEVREKQGYNYPFNYWGQGTLVTVSS : 8.19
5. PR005575 (antibody, human IgG1, V domains shown, no light chain; also called anti-PD1 PR002481Com_24 HCAb hIgG1) VH: EVQLVETGGGLIQPGGSLRLSCAASGFNVASHYMSWVRQAPGKGREWVSIIDKAGSGYYADSVKGRFTISRDNSKNRLYLQMNSLRAEDTAMYYCARATEVREKQGYNYPFNYWGQGTLVTVSS : 8.41
6. PR002481 (antibody, human IgG1, V domains shown, Heavy-chain-only antibody (HCAb), human IgG1 Fc; two heavy chains, no light chain; also called R4004P556D1; anti-PD1 R4004P556D1 HCAb hG1) VH: EVQLVETGGGLIQPGGSLRLSCAASGFNVSSHYMSWVRQAPGKGREWVSIIDGGGSTYYADSVKGRFTISRDNSKNRLYLQMNSLRAEDTAMYYCARATAVAEKNGYNYPFNYWGQGTLVTVSS : 8.09
7. PR005569 (antibody, human IgG1, V domains shown, no light chain; also called anti-PD1 PR002481R2M4_E2 HCAb hIgG1) VH: EVQLVETGGGLIQPGGSLRLSCAASGFNVSFYYMSWVRQAPGKGREWVSIIDKSGSTYYAASVKGRFTISRDNSKNRLYLQMNSLRAEDTAMYYCARATEVREKNGYNYPFNYWGQGTLVTVSS : 8.47
8. PR005572 (antibody, human IgG1, V domains shown, no light chain; also called anti-PD1 PR002481Com_32 HCAb hIgG1) VH: EVQLVETGGGLIQPGGSLRLSCAASGFNVAFYYMSWVRQAPGKGREWVSIIDKGGSTYYADSVKGRFTISRDNSKNRLYLQMNSLRAEDTAMYYCARATEVREKQGYNYPFNYWGQGTLVTVSS : 8.33
